Reported pIC50 values for a set of compounds
Molecular target: UniProtKB P48775
Sequence (P48775 whole entry): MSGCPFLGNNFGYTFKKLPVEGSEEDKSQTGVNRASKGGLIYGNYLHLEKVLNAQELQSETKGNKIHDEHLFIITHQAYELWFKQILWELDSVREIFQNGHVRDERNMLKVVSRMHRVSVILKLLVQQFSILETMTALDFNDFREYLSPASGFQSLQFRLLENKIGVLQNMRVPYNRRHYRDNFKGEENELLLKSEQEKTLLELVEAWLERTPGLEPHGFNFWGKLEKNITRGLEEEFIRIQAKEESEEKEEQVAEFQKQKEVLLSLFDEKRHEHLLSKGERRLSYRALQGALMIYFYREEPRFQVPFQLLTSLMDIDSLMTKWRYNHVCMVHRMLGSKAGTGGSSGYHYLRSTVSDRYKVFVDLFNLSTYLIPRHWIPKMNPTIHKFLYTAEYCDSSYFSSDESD
Scale explanation: pIC50 corresponds to minus log10 of a concentration expressed in moles per litre.

Fill in the recorded pIC50 for this compound, with UniProtKB P48775 as test system: c1ccc2c(c1)[nH]c1c(-c3c[nH]cn3)nccc12
5.94

Fill in the recorded pIC50 for this compound, with UniProtKB P48775 as test system: c1ccc2c(c1)[nH]c1cnccc12
5.92

Fill in the recorded pIC50 for this compound, with UniProtKB P48775 as test system: c1ccc(-c2nccc3c2[nH]c2ccccc23)cc1
5.14

Fill in the recorded pIC50 for this compound, with UniProtKB P48775 as test system: c1cncc(-c2nccc3c2[nH]c2ccccc23)c1
5.67
